- Tested on: A2780 ovarian carcinoma cells
- Assay Explanation: MTT cytotoxicity assay, A2780
Metric Name: IC50
Write down the value, and be sure its unit follows.

Qu. Indicate its recorded IC50; the molecule in question is Cc1c(C)c2c(c(C)c1OC(=O)CCC(=O)O)CC[C@@](C)(CCC[C@H](C)CCC[C@H](C)CCCC(C)C)O2 [α-TOS, α-tocopherol succinate, reference compound]
Ans. 13.8 µM

* * *

- System: A549 cells
- Assay Explanation: MTT cytotoxicity assay, A549
Metric Name: IC50 (µM)
I only need the number, in µM, no unit after it.

Qu. Indicate its recorded IC50; the compound in question is Cc1c(C)c2c(c(C)c1OC(=O)CCC(=O)O)CC[C@@](C)(CCC[C@H](C)CCC[C@H](C)CCCC(C)C)O2 [α-TOS, α-tocopherol succinate, reference compound]
Ans. 26.9

* * *

- Test System: Bcl-xL-Bax interactions (Homo sapiens, UniProt Q07817)
- Construct: endogenous in cells; host or cells: A549
- Sequence (Q07817 whole entry): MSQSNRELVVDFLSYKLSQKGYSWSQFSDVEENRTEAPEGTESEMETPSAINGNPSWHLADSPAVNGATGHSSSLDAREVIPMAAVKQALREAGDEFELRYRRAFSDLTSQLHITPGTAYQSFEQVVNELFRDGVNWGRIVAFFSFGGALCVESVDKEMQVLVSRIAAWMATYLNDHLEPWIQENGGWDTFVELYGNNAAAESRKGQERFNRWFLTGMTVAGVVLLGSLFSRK
- Assay Explanation: Co-immunoprecipitation of Bcl-xL, probed for Bax
- Type: cell-based
- Measurement Context: A549 cells, respective IC50 values, 48 h
Metric Name: Bcl-xL-Bax interaction (Bax associated to the Bcl-xL immunoprecipitate)

compound=CC(=O)[O][Pt]([NH2])([NH2])([Cl])([Cl])[O]C(C)=O test_system="Bcl-xL-Bax interactions (Homo sapiens, UniProt Q07817)" reported_measurement="less affected"
compound="Cc1c(C)c2c(c(C)c1OC(=O)CCC(=O)[O][Pt]([NH2])([NH2])([Cl])([Cl])[O]C(=O)CCC(=O)Oc1c(C)c(C)c3c(c1C)CCC(C)(CCCC(C)CCCC(C)CCCC(C)C)O3)CCC(C)(CCCC(C)CCCC(C)CCCC(C)C)O2 (centres unmarked)" test_system="Bcl-xL-Bax interactions (Homo sapiens, UniProt Q07817)" reported_measurement="less affected"
compound="N.N.[Cl][Pt][Cl] [cisplatin, reference compound]" test_system="Bcl-xL-Bax interactions (Homo sapiens, UniProt Q07817)" reported_measurement="less affected"

* * *

- Tested on: A549 cells
- Assay Explanation: MTT cytotoxicity assay, A549
- Measurement Context: read-out: cytotoxicity IC50; A549, lung; MTT, 48 h treatment; spread in brackets
Metric Name: pIC50
Remember the convention: pIC50 equals -log10 of concentration in molar.

Qu. Indicate its recorded pIC50; the compound in question is CC[O][Pt]([NH2])([NH2])([Cl])([Cl])[O]C(=O)CCC(=O)Oc1c(C)c(C)c2c(c1C)CCC(C)(CCCC(C)CCCC(C)CCCC(C)C)O2 (stereo not shown)
Ans. 5.89

* * *

- System: MCF-7 cells
- Assay Explanation: MTT cytotoxicity assay, MCF-7
Metric Name: pIC50
Remember the convention: pIC50 equals -log10 of concentration in molar.

Qu. Indicate its recorded pIC50; the compound in question is Cc1c(C)c2c(c(C)c1OC(=O)CCC(=O)O)CC[C@@](C)(CCC[C@H](C)CCC[C@H](C)CCCC(C)C)O2 [α-TOS, α-tocopherol succinate, reference compound]
Ans. 4.39

* * *

- Tested on: A2780/CP70 cells (CisPt resistant)
- Assay Explanation: MTT cytotoxicity assay, A2780/CP70
- Measurement Context: read-out: cytotoxicity IC50; A2780/CP70, ovarian (CisPt resistant); MTT, 48 h treatment; spread in brackets
Metric Name: IC50 (nM)
I only need the number, in nM, no unit after it.

Qu. Indicate its recorded IC50; the compound in question is CC[O][Pt]([NH2])([NH2])([Cl])([Cl])[O]C(=O)CCC(=O)Oc1c(C)c(C)c2c(c1C)CCC(C)(CCCC(C)CCCC(C)CCCC(C)C)O2 (stereo not shown)
Ans. 1100
